Target: CNQX-labeled non-NMDA receptors
Test: Inhibition of EAA receptor ligand binding, CNQX (CNQX-labeled non-NMDA receptors)
Details: inhibition of EAA receptor ligand binding; CNQX-labeled non-NMDA receptors; read-out: Receptor Potency (Ki), CNOX
PARAMETER_MEASURED: Ki (µM)

Reference set (3 entries):
O=C(O)c1cc(CP(=O)(O)O)c2ccc(Cl)cc2n1 = 64
O=c1cc(CP(=O)(O)O)c2ccc(I)cc2[nH]1 = 26
O=c1cc(CCP(=O)(O)O)c2ccc(Cl)cc2[nH]1 = 91

[a] O=c1cc(CP(=O)(O)O)c2ccc(Cl)c([N+](=O)[O-])c2[nH]1
[b] O=c1cc(CP(=O)(O)O)c2ccc(Cl)cc2[nH]1
[c] O=c1cc(CP(=O)(O)O)c2c(Cl)cc(Cl)cc2[nH]1
// smallest Ki at index 0, largest at the end # respond with the labels, arranged in the requested order
c, b, a
(c: 38 µM, b: 59 µM, a: 300 µM)

[1] O=C(O)c1cc(CCP(=O)(O)O)c2ccc(Cl)cc2n1
[2] O=c1cc(CP(=O)(O)O)c2cc(Cl)c(Cl)cc2[nH]1
So which one has the bigger Ki here, 1 or 2 ? Selection: enter the item's label.
1
(1: 384 µM, 2: 15 µM)

----------
System: CNQX-labeled non-NMDA receptors
Assay: Inhibition of EAA receptor ligand binding, CNQX (CNQX-labeled non-NMDA receptors)
Conditions: in words, from Table II data
PARAMETER_MEASURED: selectivity for NMDA vs non-NMDA receptors

O=c1cc(CP(=O)(O)O)c2cc(Cl)c(Cl)cc2[nH]1 = quite selective
O=c1cc(CP(=O)(O)O)c2ccc(Cl)cc2[nH]1 = not very selective
O=c1cc(CP(=O)(O)O)c2ccc(I)cc2[nH]1 = not very selective
O=c1cc(CP(=O)(O)O)c2c(Cl)cc(Cl)cc2[nH]1 = quite selective

----------
Molecular target: GLU
Assay: Inhibition of EAA receptor ligand binding, GLU
Details: read-out: Receptor Potency (Ki), GLU
PARAMETER_MEASURED: Ki

Reference set (2 entries):
O=c1cc(P(=O)(O)O)c2ccc(Cl)cc2[nH]1 = > 300 µM
O=C(O)c1cc(CCP(=O)(O)O)c2ccc(Cl)cc2n1 = > 100 µM

What Ki value was documented for this compound, `O=c1cc(CP(=O)(O)O)c2c([N+](=O)[O-])c(Cl)ccc2[nH]1` ?
> 1000 µM

Please give the result for `O=c1cc(CP(=O)(O)O)c2ccc(I)cc2[nH]1` too.
35 µM

Please give the result for `O=c1cc(CP(=O)(O)O)c2ccc(Cl)c([N+](=O)[O-])c2[nH]1` too.
> 1000 µM

----------
Target: KA receptors (KA-induced currents in rat brain mRNA-injected Xenopus oocytes)
Experiment: Inhibition of KA-induced currents in rat brain mRNA-injected Xenopus oocytes
Assay type: cell-based
Conditions: rat brain mRNA-injected Xenopus oocytes; voltage clamped at -60 to -70 mV; IC50 converted to Ki by Cheng-Prusoff equation
PARAMETER_MEASURED: Potency to inhibit KA-induced currents, Ki (µM)

Reference set (3 entries):
CCOP(=O)(Cc1cc(=O)[nH]c2cc(Cl)cc(Cl)c12)OCC [Example 21a] = 480
O=C(O)c1cc(CCP(=O)(O)O)c2ccc(Cl)cc2n1 = 450
O=c1cc(CP(=O)(O)O)c2c(Cl)cc(Cl)cc2[nH]1 = 18.2

[P] O=c1cc(CP(=O)(O)O)c2cc(Cl)c(Cl)cc2[nH]1
[Q] O=c1cc(CP(=O)(O)O)c2ccc(I)cc2[nH]1
[R] O=C(O)c1cc(CP(=O)(O)O)c2ccc(Cl)cc2n1
[S] O=c1cc(CP(=O)(O)O)c2ccc(Cl)cc2[nH]1
// smallest Potency to inhibit KA-induced currents, Ki at index 0, largest at the end # respond with the labels, arranged in the requested order
P, Q, S, R

----------
This section lists Ki readings for Glycine (strychnine insensitive glycine binding) (Rattus norvegicus).
PARAMETER_MEASURED: Ki (µM)

CCOP(=O)(Cc1cc(=O)[nH]c2cc(Cl)cc(Cl)c12)OCC [Example 21a] = 103

[1] O=C(O)c1cc(CP(=O)(O)O)c2ccc(Cl)cc2n1 [Example 23]
[2] O=c1cc(CP(=O)(O)O)c2ccc(I)cc2[nH]1 [Example 4, 7-Iodo-4-phosphonomethylquinolin-2-one]
So which one has the bigger Ki here, 1 or 2 ? Selection: enter the item's label.
1
(1: 68 µM, 2: 29 µM)

----------
Target: GLU
Assay: Inhibition of EAA receptor ligand binding, GLU
Settings: read-out: Receptor Potency (Ki), GLU
PARAMETER_MEASURED: Ki (µM)

[a] O=c1cc(CP(=O)(O)O)c2ccc(Cl)cc2[nH]1 [Example 2, 7-Chloro-4-phosphonomethylquinolin-2-one]
[b] O=c1cc(CCP(=O)(O)O)c2ccc(Cl)cc2[nH]1 [Example 1, 7-Chloro-4-phosphonethylquinolin-2-one]
Could you tell me which of these two has the smaller Ki figure? First: a Second: b Selection: enter the item's label.
a

----------
This section lists Ki readings for Glycine (strychnine insensitive glycine binding) (Rattus norvegicus, UniProt P35439).

Reference set (2 entries):
O=c1cc(CP(=O)(O)O)c2c([N+](=O)[O-])c(Cl)ccc2[nH]1 = > 1 mM
O=C(O)c1cc(CCP(=O)(O)O)c2ccc(Cl)cc2n1 = > 1 mM

From here, focus on the item given below.
What Ki value was documented for this compound, `O=c1cc(P(=O)(O)O)c2ccc(Cl)cc2[nH]1` ?
> 1 mM
